Tested on: Staphylococcus epidermidis
Assay Summary: Antibacterial activity against penicillin-resistant Staphylococcus epidermidis clinical isolate after 24 hrs by broth microdilution method
Assay type: functional
Quick reference: MIC of the listed items.
Only the number, expressed in µg/mL, is required.

# annotated cases, reported MIC shown
Cc1cc(-c2ccccc2C(F)(F)F)cc2c3ccccc3c[n+](C)c12.[Cl-]: 0.5
COc1cc(-c2ccc(C)cc2)cc2c3ccccc3c[n+](C)c12.[Cl-]: 16
COc1ccc(-c2cc(OC)c3c(c2)c2ccccc2c[n+]3C)cc1.[Cl-]: 16

MIC reading for COc1cc(-c2ccccc2C(F)(F)F)cc2c3ccccc3c[n+](C)c12.[Cl-] : 16

// provenance: ChEMBL document CHEMBL4118132
